# Test system: IGROV-ET
# RUN DESCRIPTION: SRB colorimetric cell growth inhibition assay, IGROV-ET (ET-743 resistant)
# Type: cell-based
# CONDITIONS USED: Homo sapiens, IGROV-ET; GI=growth inhibition; read-out: GI50 IGROV-ET
Measured log10 of GI50 of individual entries
Lab note - GI50 converted to log10 from values in nM.

SMILES ENTRY	TEST SYSTEM	VALUE TYPE	MEASURED
COc1cc(-c2c3n(c4c(=O)oc5cc(OC(=O)[C@@H](N)CO)c(OC)cc5c24)CCc2c-3cc(OC)c(OC)c2OC(=O)[C@@H](N)CO)ccc1OC(=O)[C@@H](N)CO	IGROV-ET	log10 of GI50	2.80

Turning to the following compound.
Input: Sample COc1cc2ccn3c(c(-c4ccc(OS(=O)(=O)C(F)(F)F)c(OC)c4)c4c5cc(OC)c(OS(=O)(=O)C(F)(F)F)cc5oc(=O)c43)c2cc1OC — what was its log10 of GI50?
Output: 3.59

###

Measured CC50 of individual entries
# System: HT-29
# RUN DESCRIPTION: SRB colorimetric cell growth inhibition assay, HT-29
# Format: cell-based
# CONDITIONS USED: HT-29; cell killing (cytotoxic effect); read-out: LC50 HT-29
Reply with just the number (in µM).

MOLECULE	TEST SYSTEM	VALUE TYPE	MEASURED
COc1cc2c(cc1O)oc(=O)c1c2c(-c2ccc(OC(=O)[C@H](C)N)c(OC)c2)c2c3cc(OC)c(O)cc3ccn21.Cl	HT-29	CC50	16.5
COc1cc(-c2c3n(c4c(=O)oc5cc(OS(C)(=O)=O)c(OC)cc5c24)CCc2cc(OS(C)(=O)=O)c(OC)cc2-3)ccc1OS(C)(=O)=O	HT-29	CC50	13.6
COc1cc(-c2c3c4cc(OC)c(OC(=O)[C@H](C)N)cc4oc(=O)c3n3ccc4c(OC(=O)[C@H](C)N)c(OC)c(OC)cc4c23)ccc1OC(=O)[C@H](C)N [Compound 16]	HT-29	CC50	5
COc1cc(-c2c3c4cc(OC)c(OC(=O)[C@H](C)N)cc4oc(=O)c3n3ccc4cc(O)c(OC)cc4c23)ccc1O.Cl	HT-29	CC50	16.5
COc1cc(-c2c3n(c4c(=O)oc5cc(OC(C)=O)c(OC)cc5c24)CCc2cc(OC)c(OC(C)=O)cc2-3)ccc1OC(C)=O	HT-29	CC50	15.9
COc1cc2ccn3c(c(-c4ccc(OC(=O)[C@@H](N)Cc5ccccc5)c(OC)c4)c4c5cc(OC)c(OC(=O)[C@@H](N)Cc6ccccc6)cc5oc(=O)c43)c2cc1OC	HT-29	CC50	12.4

Turning to the following molecule.
Input: Sample COc1cc(-c2c3c4cc(OC)c(OC(=O)[C@H](C)N)cc4oc(=O)c3n3ccc4c(OC(=O)[C@H](C)N)c(OC)c(OC)cc4c23)ccc1OC(=O)[C@H](C)N [Compound 191] — what was its CC50?
Output: 11.7

###

# RUN DESCRIPTION: SRB colorimetric cell growth inhibition assay, H-MEC-1
# Format: cell-based
# CONDITIONS USED: human, LC50 H-MEC-1
VALUE TYPE: CC50
Write the numeric value and follow it with the unit.

SMILES ENTRY	CC50
COc1cc(-c2c3n(c4c(=O)oc5cc(OC(=O)[C@@H]6CCCN6)c(OC)cc5c24)CCc2cc(OC(=O)[C@@H]4CCCN4)c(OC)cc2-3)ccc1OC(=O)[C@@H]1CCCN1	8.81 µM

Turning to the following compound.
Input: Sample COc1cc(-c2c3n(c4c(=O)oc5cc(OC(=O)[C@@H](N)C(C)C)c(OC)cc5c24)CCc2c-3cc(OC)c(OC)c2OC(=O)[C@@H](N)C(C)C)ccc1OC(=O)[C@@H](N)C(C)C — what was its CC50?
Output: 6.53 µM
